# method description: AUC in Crl:CD(SD) rat at 5 mg/kg, po by LC-MS/MS analysis
# Type: ADME, organism-based
# test context: in vivo
We begin with a simple list: items and their reported AUC.

compound: CN(C(=O)COc1ccc(Cl)nn1)C1CCN(CC2CC2(F)F)CC1 (configuration not stated)
AUC: 1590 ng·h/mL

Consider now this further compound.
Q: Which AUC is reported for this compound? Cc1nc(OCC(=O)N(C)C2CCN(CC3CC3(F)F)CC2)nc(C)c1N.Cl (racemic)
Result: 1100 ng·h/mL

###

Reported Activity values are given for each entry in this list.
# Organism: Rattus norvegicus
# method description: Modulation of FGFR in Wistar rat cerebrocortical/hippocampal neuronal cells assessed as protection against glutamate-induced neuronal cell death by measuring cell survival at 10 uM pretreated for 24 hrs followed by glutamate-stimulation by CCK8 assay relative to SUN13837
Response body: numeric value in %, unit text excluded.

Consider the worked cases shown below.
compound: Cc1nc(OCC(=O)N(C)C2CCN(CC(F)F)CC2)nc(C)c1N
Activity, %: 76
//
compound: Cc1nc(OCC(=O)N(C)C2CCN(CC(C)(C)O)CC2)nc(C)c1N
Activity, %: 74
//
compound: Cc1nc(OCC(=O)N(C)C2CCN(Cc3ccccc3)C2)nc(C)c1N (stereo not given)
Activity, %: 77
//
compound: Cc1nc(OCC(=O)N2CC[C@@H]3[C@H]2CN3Cc2ccccc2)nc(C)c1N
Activity, %: 87
//
compound: Cc1nc(OCC(=O)N(C)C2CCN(C3(C)COC3)CC2)nc(C)c1N
Activity, %: 59
//
compound: CN(C(=O)COc1ccc(Cl)nn1)C1CCN(CC2CC2(F)F)CC1 (stereo not given)
Activity, %: 105
//
compound: Cc1nc(OCC(=O)N(C)C2CCN(CC(F)(F)F)CC2)nc(C)c1N
Activity, %: 103
//
compound: Cc1nc(OCC(=O)N(C)[C@H]2CN(Cc3ccccc3)C[C@@H]2O)nc(C)c1N (relative stereo)
Activity, %: 93

Q: Can you share its Activity? I mean this compound: Cc1nc(OCC(=O)N(C)C2CCN(CC3CC3(F)F)CC2)nc(C)c1N.Cl (racemic)
Result: 189

Q: Next record, please: Cc1nc(OCC(=O)N(C)C2CCN(Cc3ncccc3F)CC2)nc(C)c1N
Result: 119

Where these numbers come from: ChEMBL document CHEMBL4622926
